compounds and their reported Inhibition 4
- Test system: cloned human or rodent CNS receptors, channels, and transporters (PDSP panel)
- Protocol: PDSP GPCR panel primary binding assays at 10 μM
- Run Parameters: H3; primary assay, replicate 4
Observed Property: Inhibition 4 (%)

{"columns": ["Compound", "Observed Measurement"],
 "data": [
  ["CCC(=O)N1CCC(NC(=O)Nc2ccc(OC(F)(F)F)cc2)CC1 [UNC10302681A, TPPU]", 18.58],
  ["O=c1oc2ccccc2cc1-c1cn2cc(Cc3ccc(F)cc3)sc2n1 [UNC10302680A, iMDK]", 64.63],
  ["CNc1nc(C)nc(N[C@H]2CCC[C@@H](C(=O)NCc3ccc(C#N)cc3C(F)(F)F)C2)n1 [UNC10302679A, GSK2256294A]", 18.87],
  ["O=C(NC1CC1)C(=O)C(Cc1ccccc1)NC(=O)[C@H]1CCC(=O)N1Cc1ccccc1 (some centres unmarked) [UNC10302676A, ABT-957 (Alicapistat)]", 13.33],
  ["CC(=O)N1CCC(NC(=O)NC23CC4CC(CC(C4)C2)C3)CC1 [UNC10302683A, AR9281]", 21.2]
]}

---

Recorded measurements of Inhibition 3, one per entry
- Assay System: cloned human or rodent CNS receptors, channels, and transporters (PDSP panel) (Homo sapiens)
- Construct: expressed in transfected cells
- Sequence (P35368 1-520): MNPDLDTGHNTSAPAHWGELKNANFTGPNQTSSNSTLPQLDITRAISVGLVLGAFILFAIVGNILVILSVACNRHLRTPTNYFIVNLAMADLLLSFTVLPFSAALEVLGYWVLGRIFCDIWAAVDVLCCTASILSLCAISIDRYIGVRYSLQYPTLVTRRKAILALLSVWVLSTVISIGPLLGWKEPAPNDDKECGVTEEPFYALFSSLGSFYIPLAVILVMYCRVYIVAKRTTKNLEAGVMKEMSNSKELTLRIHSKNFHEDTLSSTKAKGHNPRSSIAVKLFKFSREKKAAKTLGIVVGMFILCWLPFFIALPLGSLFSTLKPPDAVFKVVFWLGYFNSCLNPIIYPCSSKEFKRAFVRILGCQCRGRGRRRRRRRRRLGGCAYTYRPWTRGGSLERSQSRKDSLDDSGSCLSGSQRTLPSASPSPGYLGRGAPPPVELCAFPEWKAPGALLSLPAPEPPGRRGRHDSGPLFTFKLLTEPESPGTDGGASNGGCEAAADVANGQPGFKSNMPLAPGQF
- Protocol: PDSP GPCR panel primary binding assays at 10 μM
- Run Parameters: Receptor Alpha1B; primary assay, 10 μM

{"columns": ["Compound", "Unit Of Measure", "Inhibition 3"],
 "data": [
  ["c1cn2cc(-c3ccc4cn[nH]c4c3)nc(Nc3ccc(N4CCOCC4)cc3)c2n1 [UNC10302678A, Entospletinib (GS-9973)]", "%", -18.82],
  ["CCCCNc1ncc2c(-c3ccc(CN4CCN(C)CC4)cc3)cn([C@H]3CC[C@H](O)CC3)c2n1 [UNC2025C, UNC2025]", "%", -5.53],
  ["Cl.NC(=O)c1cnc(N[C@@H]2CCCC[C@@H]2N)nc1Nc1cccc(-n2nccn2)c1 [UNC10302682A, P505-15 (PRT06207 HCl)]", "%", 49.58],
  ["O=c1oc2ccccc2cc1-c1cn2cc(Cc3ccc(F)cc3)sc2n1 [UNC10302680A, iMDK]", "%", -2.09]
]}

---

- Assay System: cloned human or rodent CNS receptors, channels, and transporters (PDSP panel) (Homo sapiens, UniProt Q01959)
- Construct: expressed in transfected cells
- Sequence (Q01959 whole entry): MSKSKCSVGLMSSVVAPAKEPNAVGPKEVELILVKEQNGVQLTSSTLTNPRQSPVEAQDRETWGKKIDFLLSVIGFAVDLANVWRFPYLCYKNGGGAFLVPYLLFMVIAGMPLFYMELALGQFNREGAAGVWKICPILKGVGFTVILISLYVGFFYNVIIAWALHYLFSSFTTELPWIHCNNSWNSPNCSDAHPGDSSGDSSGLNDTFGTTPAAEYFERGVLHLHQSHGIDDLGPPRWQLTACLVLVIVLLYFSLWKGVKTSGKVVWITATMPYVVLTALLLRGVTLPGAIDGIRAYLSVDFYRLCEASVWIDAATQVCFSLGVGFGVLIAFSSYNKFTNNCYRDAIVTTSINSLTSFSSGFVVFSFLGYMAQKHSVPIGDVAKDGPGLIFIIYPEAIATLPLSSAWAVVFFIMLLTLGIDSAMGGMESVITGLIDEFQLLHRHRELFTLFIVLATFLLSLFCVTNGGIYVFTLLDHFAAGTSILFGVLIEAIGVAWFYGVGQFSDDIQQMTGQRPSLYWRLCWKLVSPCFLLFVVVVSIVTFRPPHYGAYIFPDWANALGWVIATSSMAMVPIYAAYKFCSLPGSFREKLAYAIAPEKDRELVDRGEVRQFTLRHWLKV
- Protocol: PDSP GPCR panel primary binding assays at 10 μM
- Run Parameters: DAT; primary assay, replicate 3
Observed Property: Inhibition 3 (%)

{"columns": ["Compound", "Observed Measurement"],
 "data": [
  ["CCC(=O)N1CCC(NC(=O)Nc2ccc(OC(F)(F)F)cc2)CC1 [UNC10302681A, TPPU]", 51.64],
  ["CC(=O)N1CCC(NC(=O)NC23CC4CC(CC(C4)C2)C3)CC1 [UNC10302683A, AR9281]", 74.33],
  ["CNc1nc(C)nc(N[C@H]2CCC[C@@H](C(=O)NCc3ccc(C#N)cc3C(F)(F)F)C2)n1 [UNC10302679A, GSK2256294A]", 54.99],
  ["O=C(NC1CC1)C(=O)C(Cc1ccccc1)NC(=O)[C@H]1CCC(=O)N1Cc1ccccc1 (some centres unmarked) [UNC10302676A, ABT-957 (Alicapistat)]", 40.62],
  ["O=c1oc2ccccc2cc1-c1cn2cc(Cc3ccc(F)cc3)sc2n1 [UNC10302680A, iMDK]", 29.6]
]}

---

- Tested on: cloned human or rodent CNS receptors, channels, and transporters (PDSP panel)
- Protocol: PDSP GPCR panel primary binding assays at 10 μM
- Run Parameters: Receptor Alpha2A; primary assay, 10 μM

{"columns": ["Compound", "Assay System", "Inhibition 3 [%]"],
 "data": [
  ["CCCCNc1ncc2c(-c3ccc(CN4CCN(C)CC4)cc3)cn([C@H]3CC[C@H](O)CC3)c2n1 [UNC2025C, UNC2025]", "cloned human or rodent CNS receptors, channels, and transporters (PDSP panel)", 40.8],
  ["c1cn2cc(-c3ccc4cn[nH]c4c3)nc(Nc3ccc(N4CCOCC4)cc3)c2n1 [UNC10302678A, Entospletinib (GS-9973)]", "cloned human or rodent CNS receptors, channels, and transporters (PDSP panel)", -12.52],
  ["Cl.NC(=O)c1cnc(N[C@@H]2CCCC[C@@H]2N)nc1Nc1cccc(-n2nccn2)c1 [UNC10302682A, P505-15 (PRT06207 HCl)]", "cloned human or rodent CNS receptors, channels, and transporters (PDSP panel)", 19.6],
  ["O=c1oc2ccccc2cc1-c1cn2cc(Cc3ccc(F)cc3)sc2n1 [UNC10302680A, iMDK]", "cloned human or rodent CNS receptors, channels, and transporters (PDSP panel)", -0.74]
]}

---

- Assay System: cloned human or rodent CNS receptors, channels, and transporters (PDSP panel) (Homo sapiens, UniProt P35368)
- Construct: expressed in transfected cells
- Sequence (P35368 1-520): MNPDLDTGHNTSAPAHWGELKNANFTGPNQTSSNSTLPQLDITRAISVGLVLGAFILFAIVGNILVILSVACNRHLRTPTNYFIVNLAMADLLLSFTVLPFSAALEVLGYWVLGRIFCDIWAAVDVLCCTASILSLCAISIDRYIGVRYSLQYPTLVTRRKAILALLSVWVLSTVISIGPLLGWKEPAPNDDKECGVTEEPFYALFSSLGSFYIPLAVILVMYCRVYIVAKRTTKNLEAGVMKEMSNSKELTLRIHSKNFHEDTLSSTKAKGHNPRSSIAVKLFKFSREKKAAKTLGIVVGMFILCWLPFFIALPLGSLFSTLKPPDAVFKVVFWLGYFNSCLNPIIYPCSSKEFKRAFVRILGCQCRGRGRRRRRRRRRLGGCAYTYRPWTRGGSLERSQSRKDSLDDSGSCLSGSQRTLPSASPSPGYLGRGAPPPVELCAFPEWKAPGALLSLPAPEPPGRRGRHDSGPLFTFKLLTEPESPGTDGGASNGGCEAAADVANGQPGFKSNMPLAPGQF
- Protocol: PDSP GPCR panel primary binding assays at 10 μM
- Run Parameters: Alpha1B; primary assay, replicate 4

{"columns": ["Compound", "Inhibition 4 (%)"],
 "data": [
  ["CC(=O)N1CCC(NC(=O)NC23CC4CC(CC(C4)C2)C3)CC1 [UNC10302683A, AR9281]", -11.37],
  ["CNc1nc(C)nc(N[C@H]2CCC[C@@H](C(=O)NCc3ccc(C#N)cc3C(F)(F)F)C2)n1 [UNC10302679A, GSK2256294A]", -3.12],
  ["CCC(=O)N1CCC(NC(=O)Nc2ccc(OC(F)(F)F)cc2)CC1 [UNC10302681A, TPPU]", 5.13],
  ["O=C(NC1CC1)C(=O)C(Cc1ccccc1)NC(=O)[C@H]1CCC(=O)N1Cc1ccccc1 (stereo partly shown) [UNC10302676A, ABT-957 (Alicapistat)]", 2.78]
]}

---

- Assay System: cloned human or rodent CNS receptors, channels, and transporters (PDSP panel) (Homo sapiens)
- Construct: expressed in transfected cells
- Protocol: PDSP GPCR panel primary binding assays at 10 μM
- Run Parameters: Receptor 5-HT2B; primary assay, 10 μM; mean of Inhibition 1-4
Property: Mean %; scope: individual compounds
Observed Property: Mean % (%)

{"columns": ["Compound", "Unit Of Measure", "Observed Measurement"],
 "data": [
  ["CCCCNc1ncc2c(-c3ccc(CN4CCN(C)CC4)cc3)cn([C@H]3CC[C@H](O)CC3)c2n1 [UNC2025C, UNC2025]", "%", 5.2],
  ["Cl.NC(=O)c1cnc(N[C@@H]2CCCC[C@@H]2N)nc1Nc1cccc(-n2nccn2)c1 [UNC10302682A, P505-15 (PRT06207 HCl)]", "%", -0.06],
  ["O=c1oc2ccccc2cc1-c1cn2cc(Cc3ccc(F)cc3)sc2n1 [UNC10302680A, iMDK]", "%", -21.03],
  ["c1cn2cc(-c3ccc4cn[nH]c4c3)nc(Nc3ccc(N4CCOCC4)cc3)c2n1 [UNC10302678A, Entospletinib (GS-9973)]", "%", 13.9]
]}
